# credit: patent US20240043521A1

- SYSTEM: T1, human S100A4 dimer (Homo sapiens, UniProt P26447 1-101)
- T1 construct: In the SPR it was captured on an anti-His surface, so it carried a His tag; also called recombinant human S100A4 dimer
- T1 sequence (P26447 whole entry, one chain of several): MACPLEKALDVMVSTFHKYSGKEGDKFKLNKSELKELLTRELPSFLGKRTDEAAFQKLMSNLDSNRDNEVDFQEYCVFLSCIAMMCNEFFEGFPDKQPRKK
- ASSAY EXPLANATION: SPR, Biacore T200, 25 C; S100A4 captured via anti-His, antibody as analyte (0.78-200 nM), 1:1 fit
MEASURED PARAMETER: koff (s⁻¹)
Just the number please, in s⁻¹, no unit attached.

// known answers, use as guide
VH1_H40Phe + H44Lys VL3 (antibody, V domains shown) VH: QVQLQESGPGLVKPSQTLSLTCTVSGDSFTNDYYWNWIRQFPGKKLEWIGHIGYGGNINYNPSLKNRLSMSRDTSKNQFSLKLSSVTAADTAVYYCTRESFYDGYPFDYWGQGTLVTVSS VL: DIQMTQSPSSLSASVGDRVTITCRASQDIRNYLNWYQQKPGKAPKLLLYYTSRLHSGVPSRFSGSGSGTDYTLTISSLQPEDFATYYCQQGNSLPRTFGGGTKVEIK = 0.00056
VH0 VL3 (antibody, V domains shown) VH: DVQLQESGPGLVKPSQSLSLTCSVTGDSFTNDYYWNWIRQFPGSKLEWMGHIGYGGNINYNPSLKNRISITRDTSKNQFFLRLTSVTTEDTATYYCTRESFYDGYPFDYWGQGTLVTVSA VL: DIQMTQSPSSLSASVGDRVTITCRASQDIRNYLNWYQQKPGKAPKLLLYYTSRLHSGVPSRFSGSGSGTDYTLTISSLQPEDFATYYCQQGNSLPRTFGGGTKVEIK = 0.000279
VH1_H43Ser + H44Lys VL3_L44Leu (antibody, V domains shown) VH: QVQLQESGPGLVKPSQTLSLTCTVSGDSFTNDYYWNWIRQHPGSKLEWIGHIGYGGNINYNPSLKNRLSMSRDTSKNQFSLKLSSVTAADTAVYYCTRESFYDGYPFDYWGQGTLVTVSS VL: DIQMTQSPSSLSASVGDRVTITCRASQDIRNYLNWYQQKPGKALKLLLYYTSRLHSGVPSRFSGSGSGTDYTLTISSLQPEDFATYYCQQGNSLPRTFGGGTKVEIK = 0.000507

Switching to the query record.
In: If you can, please state the reported koff value of VH1 VL3_L43Thr (antibody, V domains shown) VH: QVQLQESGPGLVKPSQTLSLTCTVSGDSFTNDYYWNWIRQHPGKGLEWIGHIGYGGNINYNPSLKNRLSMSRDTSKNQFSLKLSSVTAADTAVYYCTRESFYDGYPFDYWGQGTLVTVSS VL: DIQMTQSPSSLSASVGDRVTITCRASQDIRNYLNWYQQKPGKTPKLLLYYTSRLHSGVPSRFSGSGSGTDYTLTISSLQPEDFATYYCQQGNSLPRTFGGGTKVEIK .
Out: 0.000882
